subject of test: Anoctamin-1 (Mus musculus) (UniProt Q8BHY3)
Sequence (Q8BHY3 whole entry, looked up): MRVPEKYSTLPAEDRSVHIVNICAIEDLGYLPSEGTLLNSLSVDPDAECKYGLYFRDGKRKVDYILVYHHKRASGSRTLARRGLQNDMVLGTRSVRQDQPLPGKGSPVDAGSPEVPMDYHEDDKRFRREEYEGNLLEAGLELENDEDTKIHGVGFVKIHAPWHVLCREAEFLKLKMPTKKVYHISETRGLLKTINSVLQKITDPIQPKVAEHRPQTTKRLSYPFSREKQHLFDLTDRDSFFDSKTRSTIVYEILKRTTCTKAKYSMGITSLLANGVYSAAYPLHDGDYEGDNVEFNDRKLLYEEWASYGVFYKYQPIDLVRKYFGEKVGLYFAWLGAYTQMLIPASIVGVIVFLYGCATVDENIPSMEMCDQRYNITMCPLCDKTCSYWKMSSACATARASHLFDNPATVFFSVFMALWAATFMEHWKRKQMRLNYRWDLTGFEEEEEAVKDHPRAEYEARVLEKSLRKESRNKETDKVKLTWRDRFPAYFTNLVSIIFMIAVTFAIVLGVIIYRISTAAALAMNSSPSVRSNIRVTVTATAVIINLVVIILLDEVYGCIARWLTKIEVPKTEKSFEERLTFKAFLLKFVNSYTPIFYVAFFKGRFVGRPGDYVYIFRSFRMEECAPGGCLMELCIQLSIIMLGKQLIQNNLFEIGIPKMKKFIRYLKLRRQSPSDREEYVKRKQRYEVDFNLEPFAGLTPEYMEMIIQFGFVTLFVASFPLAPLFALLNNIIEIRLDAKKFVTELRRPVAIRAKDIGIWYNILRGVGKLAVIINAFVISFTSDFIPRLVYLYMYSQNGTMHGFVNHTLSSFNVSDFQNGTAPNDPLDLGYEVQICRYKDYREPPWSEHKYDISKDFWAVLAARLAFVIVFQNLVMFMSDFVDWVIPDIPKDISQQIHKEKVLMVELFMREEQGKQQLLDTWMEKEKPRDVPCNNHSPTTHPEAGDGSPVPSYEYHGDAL
assay explanation: blockers of mouse ANO1 Ca-activated Cl channel – cell-based, HTS, primary screen (AID 588511)
measurement parameters: HEK293 TMEM16A/YFP iodide influx fluorescence, ionomycin; at 10 µM
In all, about 310,000 compounds went through this assay and about 3,600 (1.2%) were called active.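 The calls were made as follows: active = ratio plate-corrected score three or more library SD toward inhibition, starting fluorescence score within five deviations; inactive = the rest.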 For the sample, actives were picked, then their nearest neighbours and some compounds at random.
Your response should consist of one outcome taken from true (1) (active), false (0) (inactive)

[
  {
    "compound": "Cn1nnnc1SCC(=O)Nc1nc2ccccc2s1",
    "subject of test": "Anoctamin-1 (Mus musculus) (UniProt Q8BHY3)",
    "category": "false (0)"
  },
  {
    "compound": "CCCCOC(=O)CCCc1ccc([N+](=O)[O-])cc1[N+](=O)[O-]",
    "subject of test": "Anoctamin-1 (Mus musculus) (UniProt Q8BHY3)",
    "category": "false (0)"
  },
  {
    "compound": "CCc1ccc[n+](-c2nc([O-])sc2C=O)c1",
    "subject of test": "Anoctamin-1 (Mus musculus) (UniProt Q8BHY3)",
    "category": "false (0)"
  },
  {
    "compound": "Cc1nc(SCC(=O)N2CCc3ccccc3C2)c2c(C)c(C)sc2n1",
    "subject of test": "Anoctamin-1 (Mus musculus) (UniProt Q8BHY3)",
    "category": "true (1)"
  },
  {
    "compound": "COc1ccc(-c2nnc(SCC(=O)c3ccc4c(c3)OCCO4)o2)cc1",
    "subject of test": "Anoctamin-1 (Mus musculus) (UniProt Q8BHY3)",
    "category": "false (0)"
  }
]

Inquiry: // param item: COc1ccc(-n2c(C)cc(C(=O)CSc3nnc(-c4cccs4)o3)c2C)cc1 ; yields the recorded call
Reply text: true (1)

Inquiry: Outcome logged for COc1ccc(S(=O)(=O)N(CCCN2CCCC2=O)Cc2cc3c(C)ccc(C)c3[nH]c2=O)cc1 in this assay:
Reply text: false (0)

Inquiry: Assay outcome for Cc1nc(SCC(=O)N2CC(=O)Nc3ccccc32)c2c(C)c(C)sc2n1 : what was it?
Reply text: false (0)

Inquiry: // param item: CSc1ccc(C(=O)C2CCCN(C(=O)c3ccc(C)nc3)C2)cc1 (stereo not given) ; yields the recorded call
Reply text: false (0)

Inquiry: Name the outcome recorded for COc1cccc(OC)c1C(=O)Nc1c(C(=O)N2CCN(c3ccccn3)CC2)oc2ccccc12 in the assay.
Reply text: false (0)

Where do these numbers come from? They come from PubChem BioAssay AID588511.
